Origin of the recorded values: PubChem BioAssay (NCI)

Below, each of the compounds is paired with its reported growth value.
- Test system: HCT-116 colon
- ASSAY METHOD TEXT: NCI-60 one-dose screen, 48 h (100 = growth as untreated, 0 = no growth, -100 = all killed)
- CONDITION DESCRIPTION: 10 µM unless noted
- Experimental: Growth inhibition of the HCT-116 human tumor cell line is measured as a screen for anti-cancer activity. Cells are grown in 96 well plates and exposed to the test compound for 48 hours. Compounds are tested at a single concentration, which is 10^-5 M for most compounds. The reported endpoint is percent growth (GI% or GIPRCNT), where numbers from 0 - 100% represent growth inhibition, and numbers from -100% - 0 represent cell death. For example, a value of 40 represents 60% growth inhibition. […]
The panel holds about 83,000 compounds, 20% with a hit somewhere; the sample as a whole holds those more often.

- COMPOUND: "C[n+]1cc2cc(C(N)=O)[nH]c3c(=N)c(Cl)c(N)c1c23"
  MEASUREMENT UNIT: "%"
  growth: 6.54
- COMPOUND: "S=C(Cc1ccc2c(c1)CCCC2)N1CCOCC1"
  MEASUREMENT UNIT: "%"
  growth: 87.6
- COMPOUND: "CCN(CC)CCCNc1ccc(Nc2ccc(OC)cc2)cc1"
  MEASUREMENT UNIT: "%"
  growth: 82.2
- COMPOUND: "COc1ccc2c(c1)C(=O)/C(=C/c1cccc(OCC(=O)Nc3nc(C)c(C)s3)c1)O2"
  MEASUREMENT UNIT: "%"
  growth: -96.5
- COMPOUND: "COc1cc(/C=N/NC(=O)Cn2c(C(C)C)nc3ccccc32)ccc1O"
  MEASUREMENT UNIT: "%"
  growth: 82.4
- COMPOUND: "Cc1cc(NCc2cc(Nc3ccnc4cc(Cl)ccc34)ccc2F)nc(N2CCSCC2)n1"
  MEASUREMENT UNIT: "%"
  growth: -29.1
- COMPOUND: "CCCCCc1nc2c(c3c1CCCC3)CCCC2"
  MEASUREMENT UNIT: "%"
  growth: 48.8
- COMPOUND: "CC1(c2ccccc2)NC(=O)N(NC(=O)CSc2nc(-c3cccs3)nc3ccccc23)C1=O (stereo not given)"
  MEASUREMENT UNIT: "%"
  growth: 93.6
- COMPOUND: "CCOC(=O)c1c(/C=C/C(=O)O)nc2ccccc2c1/C=C/c1ccccc1"
  MEASUREMENT UNIT: "%"
  growth: 22.4
- COMPOUND: "c1coc(-c2c3ccc(=[N+]4CCCCC4)cc-3oc3cc(N4CCCCC4)ccc23)c1"
  MEASUREMENT UNIT: "%"
  growth: -95.2
